Please provide measured DC50 for the entries that follow.
Biological target: UniProt:Q9H8M2
Sequence (Q9H8M2 1-597): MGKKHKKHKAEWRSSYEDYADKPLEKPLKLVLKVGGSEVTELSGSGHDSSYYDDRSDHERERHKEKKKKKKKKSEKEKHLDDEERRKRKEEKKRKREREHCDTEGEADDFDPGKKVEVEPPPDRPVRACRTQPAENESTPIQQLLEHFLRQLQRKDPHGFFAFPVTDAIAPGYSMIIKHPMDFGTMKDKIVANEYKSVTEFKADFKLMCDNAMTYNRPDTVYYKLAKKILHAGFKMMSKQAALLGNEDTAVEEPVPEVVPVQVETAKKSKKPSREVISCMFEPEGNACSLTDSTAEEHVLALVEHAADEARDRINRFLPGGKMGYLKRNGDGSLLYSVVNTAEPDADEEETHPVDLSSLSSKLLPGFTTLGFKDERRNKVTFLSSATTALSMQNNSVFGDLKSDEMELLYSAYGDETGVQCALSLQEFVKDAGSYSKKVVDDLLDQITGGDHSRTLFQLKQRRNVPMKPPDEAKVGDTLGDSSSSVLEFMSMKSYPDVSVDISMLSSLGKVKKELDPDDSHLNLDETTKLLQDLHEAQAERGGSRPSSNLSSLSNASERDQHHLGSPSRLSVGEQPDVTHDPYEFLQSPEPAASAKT
Test: BRD9 degradation, HiBiT-BRD9 KI HEK293 (LgBiT) cells, NanoGlo Lytic Endpoint assay (Assay Protocol 1)
Format: cell-based
Settings: Table 3; assay 1; 5 h of treatment

COMPOUND: COc1cc(-c2cn(C)c(=O)c(C)c2C)cc(OC)c1CN1CCC(Oc2cccc3c2CCN(C(=O)/C(C#N)=C/c2cccc(Br)n2)C3C)CC1 (mixture of isomers)
DC50: 1.25 to 10 nM
--
COMPOUND: COc1cc(-c2cn(C)c(=O)c3cnccc23)cc(OC)c1CN(C)Cc1cccc2c1CCN(C(=O)/C(C#N)=C/c1cccc(Br)n1)C2C (mixture of isomers)
DC50: < 1.25 nM
--
COMPOUND: COc1cc(-c2cn(C)c(=O)c(C)c2C)cc(OC)c1CN1CC2CC(C1)N2Cc1cccc2c1CCN(C(=O)/C(C#N)=C/C(C)(C)C)C2C (mixture of isomers)
DC50: 1.25 to 10 nM
--
COMPOUND: COc1cc(-c2cn(C)c(=O)c(C)c2C)cc(OC)c1CN1CCN(Cc2cccc3c2CCN(C(=O)/C(C#N)=C/c2cccc(Br)n2)C3C)CC1 (mixture of isomers)
DC50: 1.25 to 10 nM

Now let's try a different one.
The value of DC50 measured for the compound COc1cc(-c2cc(C)c(=O)n(C)c2)cc(OC)c1CN1CCN(Cc2cccc3c2CCN(C(=O)/C(C#N)=C/C2(F)CC2)C3C)CC1 (mixture of isomers) turned out to be < 1.25 nM

* * *

Target: BRD9 (Homo sapiens, UniProt Q9H8M2)
Assay: BRD9 degradation, HiBiT-BRD9 KI HEK293 (LgBiT) cells, NanoGlo Lytic Endpoint assay (Assay Protocol 1)
Format: cell-based
Conditions: HEK293; Table 4; BRD9 degradation, determined according to Assay Protocol 1; read-out: Dmax^1
Please provide measured Dmax for the entries that follow.

As a guide, the following entries are already answered.
MOLECULE: COc1cc(-c2cn(C)c(=O)c(C)c2C)cc(OC)c1CN1CCN(C(=O)C2CCCN(C(=O)/C(C#N)=C/C(C)(C)C)C2)CC1 (stereo not shown)
MEASURED_ENDPOINT: Dmax
RESULT: > 70%

MOLECULE: COc1cc(-c2cn(C)c(=O)c(C)c2C)cc(OC)c1CN1CC2CC1CN2C(=O)/C(C#N)=C/C(C)(C)C (mixture of isomers)
MEASURED_ENDPOINT: Dmax
RESULT: > 70%

MOLECULE: COc1cc(-c2cn(C)c(=O)c(C)c2C)cc(OC)c1CN1CCCN(C(=O)/C(C#N)=C/C(C)(C)C)CC1
MEASURED_ENDPOINT: Dmax
RESULT: > 70%

MOLECULE: COc1cc(-c2cn(C)c(=O)c(C)c2C)cc(OC)c1CN1CCN(C(=O)[C@@H]2CN(C(=O)/C(C#N)=C/C(C)(C)C)C[C@H]2C2CCCCC2)CC1
MEASURED_ENDPOINT: Dmax
RESULT: 50 to 70%

MOLECULE: COc1cc(-c2cn(C)c(=O)c(C)c2C)cc(OC)c1CN(C)C(=O)/C(C#N)=C/C(C)(C)C
MEASURED_ENDPOINT: Dmax
RESULT: 30 to 50%

MOLECULE: COc1cc(-c2cn(C)c(=O)c3ccsc23)cc(OC)c1CN1CCN(C(=O)/C(C#N)=C/C(C)(C)C)CC1
MEASURED_ENDPOINT: Dmax
RESULT: > 70%

MOLECULE: COc1cc(-c2cn(C)c(=O)c(C)c2C)cc(OC)c1CN1CCN(C(=O)[C@@H]2CN(C(=O)/C(C#N)=C/c3nccs3)C[C@H]2C2CCCCC2)CC1
MEASURED_ENDPOINT: Dmax
RESULT: 30 to 50%

MOLECULE: COc1cc(-c2cn(C)c(=O)c(C)c2C)cc(OC)c1CN1CCN(C(=O)[C@@H]2CN(C(=O)/C(C#N)=C/C(C)(C)C)C[C@H]2C(C)C)CC1
MEASURED_ENDPOINT: Dmax
RESULT: 50 to 70%

MOLECULE: COc1cc(-c2cn(C)c(=O)c(C)c2C)cc(OC)c1CN1CCN(C(=O)C2CCCN(C(=O)/C(C#N)=C/c3nccs3)C2)CC1 (stereo not shown)
MEASURED_ENDPOINT: Dmax
RESULT: 30 to 50%

MOLECULE: COc1cc(-c2cn(C)c(=O)c(C)c2C)cc(OC)c1CN1C2CC1CN(C(=O)/C(C#N)=C/C1(C(F)(F)F)CCC1)C2 (mixture of isomers)
MEASURED_ENDPOINT: Dmax
RESULT: > 70%

Dear colleague, could you please provide Dmax for the molecules listed below?
1. COc1cc(-c2cn(C)c(=O)c(C)c2C)cc(OC)c1CN1CCN(C(=O)[C@@H]2CN(C(=O)/C(C#N)=C/c3nccs3)C[C@H]2c2cccc(C)c2)CC1
2. COc1cc(-c2cn(C)c(=O)c(C)c2C)cc(OC)c1CN1CC2CCC(C1)N2C(=O)/C(C#N)=C/c1nccs1 (mixture of isomers)
3. COc1cc(-c2cn(C)c(=O)c(C)c2C)cc(OC)c1CN(C)C1CCN(C(=O)/C(C#N)=C/C(C)(C)C)CC1

Response:
["30 to 50%", "50 to 70%", "> 70%"]

The measured values listed here are drawn from patent US20260092061A1.
